The entries below are paired with their reported TGI.
System: EKVX NSCLC
EXPERIMENTAL_DETAILS: NCI tumour cell line growth inhibition, 48 h

COMPOUND	TGI
COc1ccc(/C=C\c2cc(OC)c(OC)c(OC)c2)cc1OC(=O)CCC(=O)O	> 100 µM
COc1cc2cc(C(=O)N3CC(COS(C)(=O)=O)c4c3cc(N)c3ccccc43)[nH]c2c(OC)c1OC (configuration not stated)	< 0.01 µM
COc1ccccc1C#Cc1ccccc1C#CCCCCCC#Cc1ccccc1C#Cc1ccccc1OC	> 100 µM
CCOC(=O)C1SC(=Nc2ccc(Cl)c(Cl)c2)N=C1C (configuration not stated)	> 100 µM
C/C(=N\NC(N)=S)C(CN(CC(C)C)CC(C)C)C(=O)Nc1ccc(C)cc1C (configuration not stated)	> 100 µM
CCCCOC(=O)NC(=O)c1cn(CCSCCOC(=O)NCCCCCCNC(=O)OCCSCCn2cc(C(=O)NC(=O)OCCCC)c(=O)[nH]c2=O)c(=O)[nH]c1=O	> 100 µM
O=C(O)c1ccc(N/C=C2\C(=O)c3ccccc3OC2O)cc1O (configuration not stated)	82.5 µg/mL
OC1(c2cc3ccccc3s2)CCCCC1	71.7 µM
CNC(=O)c1cc(NC(=O)N(CCC#N)CCN(C(=O)N[C@@H](Cc2ccccc2)C(=O)N[C@@H](CC(C)C)C(=O)NC)c2ccccc2)ccc1OC	> 100 µM
COc1cccc2c1C(=O)c1c(O)c3c(c(O)c1C2=O)C[C@@](O)(C(=O)CO)C[C@@H]3OC1C[C@H](N)[C@H](O)[C@H](C)O1 (some centres not stated)	5.28 µM
COc1ccc(-c2c(N)n(-c3cccc(C(=O)O)c3)c(=O)c3cc([N+](=O)[O-])ccc23)cc1	> 100 µM
O=C1CN(C(=O)c2ccccc2)Cc2[nH]c3ccccc3c21	> 100 µM
[N-]=[N+]=NCc1cccc(Nc2cc(=O)[nH]c(=O)[nH]2)c1	> 100 µM
CCOC(=O)/C=C/C(C(=O)/C=C/c1ccc(O)c(OC)c1)=C(O)\C=C\c1ccc(O)c(OC)c1	42 µM
NC(=S)Nc1[nH]c(=S)nc2c1SC1=N/C(=C\c3ccco3)C(=O)N12	> 100 µM
C=CCSC1=N/C(=C\c2ccccc2)C(=O)N1CC=C	77 µM
CC[C@H](C)[C@H]1NC(=O)[C@@H](NC(=O)[C@@H](CC(C)C)N(C)CC2CCCN2C(=O)C(C)=O)[C@@H](C)OC(=O)[C@H](Cc2ccc(OC)cc2)N(C)C(=O)C2CCCN2C(=O)[C@H](CC(C)C)NC(=O)[C@@H](C)C(=O)[C@H](C(C)C)OC(=O)C[C@@H]1O (some centres not stated)	0.0509 µM

* * *

The entries below are paired with their reported TGI.
Test system: HOP-62 NSCLC
EXPERIMENTAL_DETAILS: NCI tumour cell line growth inhibition, 48 h

COMPOUND	TGI
CN(C)C(=O)c1cc2cnc(Nc3ccc(-c4csc5c(=O)cc(N6CCOCC6)oc45)cc3)nc2n1C1CCCC1	1.67 µM
O=C(OCC1CO1)c1cccs1 (centres undefined)	> 100 µM
O=C(Nc1ccc(Cl)cc1)c1cc(-c2ccc(Cl)cc2)c2sc(=O)[nH]c2n1	8.85 µM
CNC(=O)c1cc(NC(=O)N(CCC#N)CCN(C(=O)N[C@@H](Cc2ccccc2)C(=O)N[C@@H](CC(C)C)C(=O)NC)c2ccccc2)ccc1OC	> 100 µM
CCc1ccc2[nH]c(O)c(-c3[nH]c4ccccc4c3N=O)c2c1	27.2 µM
COC(=O)/C=C1\CCC(C)(C(=O)NS(=O)(=O)c2ccc(C)cc2)C1(C)C (centres undefined)	> 100 µM
COc1cc2cc(C(=O)N3CC(COS(C)(=O)=O)c4c3cc(N)c3ccccc43)[nH]c2c(OC)c1OC (centres undefined)	> 100 µM
C=C(C)C(=O)[C@@]12C(=O)[C@@H](C)CC[C@H]1[C@H](C)C[C@@H]2C=C(C)C	> 100 µM
COc1ccc(-n2c3c(c4c(CN5CCOCC5)c(O)ccc42)CCc2ccccc2C3=O)cc1	> 100 µM

* * *

Tested on: SF-268 CNS
EXPERIMENTAL_DETAILS: NCI tumour cell line growth inhibition, 48 h

COMPOUND	TGI
CCOC(=O)/C=C(/C(=O)OCC)n1cc(C)c(=O)n(Cc2cn(COCCOC(C)=O)nn2)c1=O	48.2 µM
C(=C\c1ccccc1)/C=N/c1nc2cc3sc(/N=C/C=C/c4ccccc4)nc3cc2s1	> 100 µM
Cc1ccc(C(C2C(=O)N(C)C(=O)N(C)C2=O)C(F)(F)C(=O)N(C)C)cc1 (stereo not given)	> 100 µM
Cc1cc(C)c(O)c(CN(C)Cc2cc(Cl)cc(Cl)c2O)c1	19.2 µM
O=C1C(=O)N(c2ccc(Cl)cc2Cl)C(=O)C(=O)C1c1nc2ccccc2o1	> 100 µM

* * *

Tested on: U251 CNS
EXPERIMENTAL_DETAILS: NCI tumour cell line growth inhibition, 48 h
*1 amine or outer side, *2 acyl side, *3 side chain or, on linkers, in order; H or OH if unused. Where a SMILES comes first, the peptide text is derived from it. Bridges are numbered along the chain shown (N, C = ends). Roman numbers before positions name the chains, in order. [ ]: non-standard residue; d: D form. Actinocin(9to1) = Cc1c2oc3c(C)ccc(C(=O)[*:1])c3nc-2c(C(=O)[*:2])c(N)c1=O; NMeV = CN[CH](C(=O)O)C(C)C; Sar = CNCC(=O)O
MEASURE: TGI

MOLECULE	RESULT
Cc1ccc2c(O)c(O)cc(NC(C)CCCN)c2n1 (stereo not drawn)	14.8 µM
O=C1C(=O)N(c2ccc(Cl)cc2Cl)C(=O)C(=O)C1c1nc2ccccc2o1	> 100 µM
C/C(=N\N=C(/[Se])N1CC2CCC(CC2)C1)c1ccccn1	1.51 µM
O=C(Nc1ccc(Cl)cc1)c1cc(-c2ccc(Cl)cc2)c2sc(=O)[nH]c2n1	11.8 µM
Cc1[nH]c2ccccc2c1C=Nc1ccc(N=Cc2c(C)[nH]c3ccccc23)cc1	> 100 µM
Cc1c2oc3c(C)ccc(C(=O)NC4C(=O)NC(C(C)O)C(=O)N5CCCC5C(=O)N(C)CC(=O)N(C)C(C(C)C)C(=O)OC4C)c3nc-2c(C(=O)NC2C(=O)NC(C(C)O)C(=O)N3CCCC3C(=O)N(C)CC(=O)N(C)C(C(C)C)C(=O)OC2C)c(N)c1=O (stereo not drawn) (I: TTP[Sar][NMeV] / II: TTP[Sar][NMeV]; ester I:1-I:C, II:1-II:C; linker I:N-II:N via Actinocin(9to1); configuration not given here)	> 100 µM
N#CC1=C(N)NC(=O)NC12Nc1ccccc1S2 (stereo not drawn)	> 55 µM
COC(=O)/C=C/c1cc(O)c2c(c1)[C@H](C(=O)OC)[C@@H](c1ccc(O)c(O)c1)O2	> 100 µM
COc1ccc(-n2c3c(c4c(CN5CCOCC5)c(O)ccc42)CCc2ccccc2C3=O)cc1	> 100 µM
COC(=O)/C=C1\CCC(C)(C(=O)NS(=O)(=O)c2ccc(C)cc2)C1(C)C (stereo not drawn)	> 100 µM
CC(=O)CCCCO	> 100 µM
O=C1Nc2cc([N+](=O)[O-])ccc2NC1/C(=N\Nc1ccccc1)C(O)c1cccc([N+](=O)[O-])c1 (stereo not drawn)	> 100 µM
Oc1[nH]c2ccccc2c1N=Nc1nc(-c2ccc(Cl)c(Cl)c2)cs1	> 100 µM
Cc1cc(Cc2cc(C)cc(C(C)(C)C)c2O)c(O)c(C(C)(C)C)c1	17.5 µM
CO[C@@H]1CC(=O)C2(CC(=O)O[C@@H]2/C=C(\C)CCC=C(C)C)C[C@@H]1O (stereo partly drawn)	1.4 µM
CCOC(=O)C(=Cc1ccc(C(=O)OC)cc1)C(=O)OCC	4.77 µM
O=c1[nH]cnc2[nH]ncc12	> 4470 µM
O=C(N/N=C/c1cc(Cl)cc(Cl)c1[O-])c1ccccc1O.O=C(N/N=C/c1cc(Cl)cc(Cl)c1[O-])c1ccccc1O.[Ni+2]	1.98 µM

* * *

The entries below are paired with their reported TGI.
System: U251 CNS
EXPERIMENTAL_DETAILS: NCI tumour cell line growth inhibition, 48 h
MEASURE: TGI

COMPOUND	RESULT
COP(=O)(OC)C(Cc1c[nH]c2ccccc12)NC(=O)OCc1ccccc1 (stereo unspecified)	> 100 µM
COc1ccc2nc3cc(Cl)ccc3c(NCCCNCCC(C)O)c2c1 (stereo unspecified)	2.34 µM
NC(=O)C(c1ccccc1)N1CCOCC1 (stereo unspecified)	> 100 µM
c1ccc2c(c1)CCc1cc3cc4c(nc3nc1-2)-c1ccccc1CC4	> 100 µM
COc1cc(/C=C2\CN(C)C/C(=C\c3cc(CN4CCCCC4)c(O)c(OC)c3)C2=O)cc(CN2CCCCC2)c1O	13.2 µM
Nc1ccccc1N/C=C\C(=O)C(Cl)(Cl)Cl	56.9 µM
O=c1c2cc(I)ccc2nc(Sc2ncccc2[N+](=O)[O-])n1Cc1ccccc1	> 100 µM
COc1ccc(Cl)cc1NC(=O)C(Br)C(Br)C(=O)O (stereo unspecified)	20.9 µM
Cc1cc(S(=O)(=O)O)c(NC(=O)C(=O)C2C=CCS2(=O)=O)cc1Cl (stereo unspecified)	> 100 µM
O=C(NC1CCN(Cc2ccccc2)CC1)c1cc2nc(-c3ccc(Cl)s3)cc(C(F)(F)F)n2n1	> 100 µM
COc1cc(/C=C2\N=C(c3ccccc3)N(c3nc4c(OC)ccc(OC)c4s3)C2=O)cc(OC)c1OC	> 100 µM

The reported numbers originate from PubChem BioAssay (NCI).
